- RUN_DESCRIPTION: NCI Yeast Anticancer Drug Screen. Data for the rad50 strain (AID 155);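 further: 0% = growth of vehicle-only cultures of the same strain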
- APPLIED_CONDITIONS: S. cerevisiae rad50 strain growth inhibition; at 50.0 µM
This is part of a sample that, as a whole, favours compounds with a hit. Of some 79,000 tested, about 15% had one in any assay. Calls of active or inactive are those of the source. No stated cut-off is given here; in the data, active means growth inhibition above about 70%; inactive means the rest.
Hi there, use one of these labels in your reply, thanks! 1 (yes) (active), 0 (no) (inactive)

Some solved cases for reference:
- NC(=O)N1CCOCC1: 0 (no)
- CC(=O)Nc1ccc(O)c(C)c1: 0 (no)

Request: State the result this test recorded for O=Cc1ccc(O)c(O)c1 .
Result: 0 (no)

Request: State the result this test recorded for Cc1ccc(NCN2C(=O)c3ccccc3C2=O)c(C)n1 .
Result: 0 (no)

----------
- RUN_DESCRIPTION: NCI Yeast Anticancer Drug Screen. Data for the bub3 strain (AID 167)
- APPLIED_CONDITIONS: S. cerevisiae bub3 mutant strain, at 50.0 µM, active compounds read high
- Description: Growth inhibition of yeast strains with defined genetic alterations is measured as a screen for potential anti-cancer activity. Selected strains with alterations in DNA damage repair or cell cycle control were exposed to compounds and growth inhibition was measured relative to vehicle treated controls. The strain used in this assay is bub3
Compounds without any hit were thinned out: in the full panel of roughly 79,000, 15% have a hit.
Listing of recorded growth inhibition by entry.
Please give a number only; it is taken to be in %.

• NC(CO)(CO)c1ccccc1 = 17.5
• O=C(OC1CCCC1)c1ccccc1Cl = -2.3
• O=C(O)c1ccc([N+](=O)[O-])cc1S(=O)(=O)O = -8.4

Value of growth inhibition reported for the compound COc1ccc(C2CCCCC2=O)cc1 (stereo unspecified) is -34.2

Value of growth inhibition reported for the compound COC(=O)C1(CC(C)=O)NC(=S)NC(=O)C1C#N (stereo unspecified) is -30.1

Value of growth inhibition reported for the compound CC(=O)OCC1OC(n2cnc3c(=S)nc(N)[nH]c32)C(OC(C)=O)C1OC(C)=O (stereo unspecified) is 11.1

Value of growth inhibition reported for the compound O=[N+]([O-])c1c(Cl)ncnc1Cl is -48.1

Value of growth inhibition reported for the compound CC(C)N(C(=O)c1ccccc1)C(C)C is -7.35

----------
- RUN_DESCRIPTION: NCI Yeast Anticancer Drug Screen. Data for the cln2 rad14 strain (AID 165);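 further: 0% = growth equal to vehicle treated cultures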
- APPLIED_CONDITIONS: S. cerevisiae cln2 rad14 strain, at 50.0 µM, active compounds read high
- Method: Growth inhibition of yeast strains with defined genetic alterations is measured as a screen for potential anti-cancer activity. Selected strains with alterations in DNA damage repair or cell cycle control were exposed to compounds and growth inhibition was measured relative to vehicle treated controls. The strain used in this assay is cln2 rad14
Compounds without any hit were thinned out: in the full panel of roughly 79,000, 15% have a hit.
Listing of recorded growth inhibition by entry.
Please give a number only; it is taken to be in %.

- Nc1ccn(C2CC(N)C(CO)O2)c(=O)n1 (stereo not given): 19.8
- C1CCc2onc(-c3noc4c3CCCCC4)c2CC1: -1.1
- O=C(c1ccccc1)c1ccc(-c2ccc(O)cc2)cc1: -44.3
- OCC1CCC(O)C(CO)N1 (stereo not given): 8.85

For the next question, use this molecule.
Value of growth inhibition reported for the molecule CCOP(=O)(NC(c1ccccc1)c1ccccc1)OCC is 5.55

----------
- RUN_DESCRIPTION: NCI Yeast Anticancer Drug Screen. Data for the bub3 strain (AID 167)
- APPLIED_CONDITIONS: S. cerevisiae bub3 mutant strain, at 50.0 µM, active compounds read high
This is part of a sample that, as a whole, favours compounds with a hit. Of some 79,000 tested, about 15% had one in any assay.
Listing of recorded growth inhibition by entry.
Please give a number only; it is taken to be in %.

Examples from the recorded data:
* C=C(OC(C)=O)c1ccccc1 | 28.3
* O=C(NCc1ccco1)Nc1cccc2c(NC(=O)NCc3ccco3)cccc12 | 2.05
* Cc1ccc(S(=O)(=O)Oc2ccc3sc4c(CO)ccc(NCCN(C)C)c4c(=O)c3c2)cc1 | 22.4

For the next question, use this compound.
Value of growth inhibition reported for the compound O=C(Nc1ccccc1)c1ccco1 is -1.55

----------
- RUN_DESCRIPTION: NCI Yeast Anticancer Drug Screen. Data for the mec2-1 strain (AID 157)
- APPLIED_CONDITIONS: S. cerevisiae mec2-1 strain, at 50.0 µM, active compounds read high
- Description: Growth inhibition of yeast strains with defined genetic alterations is measured as a screen for potential anti-cancer activity. Selected strains with alterations in DNA damage repair or cell cycle control were exposed to compounds and growth inhibition was measured relative to vehicle treated controls. The strain used in this assay is mec2-1
The panel holds about 79,000 compounds, 15% with a hit somewhere; the sample as a whole holds those more often.
READOUT_TYPE: growth inhibition (%)
Please give a number only; it is taken to be in %.

Examples from the recorded data:
• Cc1nc(O)cc(=O)[nH]1 = -6.9
• Cc1ccc(Cc2ccc(C)cc2)cc1 = -34.2
• CC1(c2ccccc2)CO1 (centres undefined) = -21.4

For the next question, use this compound.
Value of growth inhibition reported for the compound Clc1cccc(Cl)c1C1CSc2ccccc2N=C1c1ccccc1 (centres undefined) is 8.9

----------
- RUN_DESCRIPTION: NCI Yeast Anticancer Drug Screen. Data for the mec2-1 strain (AID 157)
- APPLIED_CONDITIONS: S. cerevisiae mec2-1 strain, at 50.0 µM, active compounds read high
The panel holds about 79,000 compounds, 15% with a hit somewhere; the sample as a whole holds those more often.
READOUT_TYPE: growth inhibition (%)
Please give a number only; it is taken to be in %.

Examples from the recorded data:
- COc1cc(OC)c(NC(=O)C(Sc2nc(C)cc(C)c2C#N)c2ccccc2)cc1Cl (centres undefined): -19.9
- S=c1nc(-c2ccccn2)c(-c2ccccn2)n[nH]1: -9.05
- N#Cc1ccc(OC(=O)Nc2cc(Cl)cc(Cl)c2)cc1: -21.9

For the next question, use this molecule.
Value of growth inhibition reported for the molecule COc1cc(C(=O)N2CCN(c3ccccc3)CC2)c2ccccc2n1 is 3.8

----------
Listing of recorded growth inhibition by entry.
- RUN_DESCRIPTION: NCI Yeast Anticancer Drug Screen. Data for the mec2-1 strain (AID 157)
- APPLIED_CONDITIONS: S. cerevisiae mec2-1 strain, at 50.0 µM, active compounds read high
Compounds without any hit were thinned out: in the full panel of roughly 79,000, 15% have a hit.
Please give a number only; it is taken to be in %.

• Cc1ccc(C)c(CCO)c1 = -38.5

Value of growth inhibition reported for the compound COc1cc(OC)c2cc(C(=O)c3ccc(C#N)cc3)c(=O)oc2c1 is -12.1

Value of growth inhibition reported for the compound CCC(C)C1CCC(O)CC1 (stereo not drawn) is 9.55

----------
- RUN_DESCRIPTION: NCI Yeast Anticancer Drug Screen. Data for the mlh1 rad18 strain (AID 175)
- APPLIED_CONDITIONS: S. cerevisiae mlh1 rad18 strain growth inhibition; at 50.0 µM; active compounds read high
Compounds without any hit were thinned out: in the full panel of roughly 79,000, 15% have a hit.
READOUT_TYPE: growth inhibition (%)
Please give a number only; it is taken to be in %.

* Nc1ccc(F)cc1F | 7.35
* CCC(C)C1CCC(O)CC1 (centres undefined) | 18.9
* CC1CC(C)S(=O)(=O)C1 (centres undefined) | -2
* CC(C)C(=O)OCCOc1ccc(C(C)(C)C)cc1 | 13.7
* O=C(OC1CCCC1)c1ccccc1Cl | 23.2
* CCOC(=O)C(=O)CC(=O)c1ccccc1 | 11.7
* COC(c1ccc2c(c1)OCO2)C(C)Br (centres undefined) | 6.55
* COC1OC(C(COC(C)=O)OC(C)=O)C(OC(C)=O)C(OC(C)=O)C1OC(C)=O (centres undefined) | -14.8

Value of growth inhibition reported for the compound COC(C(=O)C(O)C(C)O)C1Cc2cc3cc(OC4CC(OC5CC(O)C(O)C(C)O5)C(O)C(C)O4)c(C)c(O)c3c(O)c2C(=O)C1OC1CC(OC2CC(O)C(OC3CC(C)(O)C(O)C(C)O3)C(C)O2)C(O)C(C)O1 (centres undefined) is 11.8

Value of growth inhibition reported for the compound Nc1nc(Cl)cc(Cl)n1 is 3.25

Value of growth inhibition reported for the compound S=C=Nc1ccc2ccccc2c1 is 21.1

Value of growth inhibition reported for the compound CC1(C)C2CCC1(C)C1(C2)OCCS1 (centres undefined) is -7.65

----------
- RUN_DESCRIPTION: NCI Yeast Anticancer Drug Screen. Data for the mlh1 rad18 strain (AID 175)
- APPLIED_CONDITIONS: S. cerevisiae mlh1 rad18 strain growth inhibition; at 50.0 µM
Compounds without any hit were thinned out: in the full panel of roughly 79,000, 15% have a hit. Calls of active or inactive are those of the source. Cut-off read from the data, not from the text of the source: active = growth inhibition above about 70%; inactive = the rest.
Hi there, use one of these labels in your reply, thanks! active, inactive

Some solved cases for reference:
* Cc1nc(C)c(C(=O)O)cc1C(=O)O | inactive
* Cc1cc(Cl)cc(Cc2cc(Cl)cc(C)c2O)c1O | inactive
* C/C(=N\N=C(/C)c1cccc([N+](=O)[O-])c1)c1cccc([N+](=O)[O-])c1 | inactive
* COC(=O)C1=C(C)C(=O)CC1 | inactive
* CC(=O)N(CCCCCCN(C(C)=O)C(C)=O)C(C)=O | inactive
* Oc1cccc(CNC2CCCCC2)c1 | inactive
* N=C(N)c1nn(C2OC(CO)C(O)C2O)c2nc[nH]c(=O)c12 (configuration not stated) | inactive
* CC1CN(CCO)CC(C)O1 (configuration not stated) | inactive

Request: State the result this test recorded for CCN(C(=O)Nc1ccccc1Cl)c1ccccc1 .
Result: inactive

Request: State the result this test recorded for OCC(O)COc1ccc(Cl)cc1Cl (configuration not stated) .
Result: inactive
